# Test system: Candida albicans
# TEST METHOD NOTES: Fungicidal activity against Candida albicans isolate 13 assessed as fungal killing incubated for 48 hrs followed by plating on SD agar plate
# Format: functional
# ASSAY CONDITIONS: read-out: MFC99.9
Listed here are compounds together with their documented MFC.

| COMPOUND | UNIT OF MEASUREMENT | MFC |
| --- | --- | --- |
| CC(=O)N1CCN(c2ccc(OCC3COC(Cn4ccnc4)(c4ccc(Cl)cc4Cl)O3)cc2)CC1 (centres undefined) [KETOCONAZOLE] | µg/mL | 250 |
| [Cl-].[N-]=[N+]=NCCCCCCCCCCCCOCCCc1ccc[n+](Cc2ccccc2)c1 | µg/mL | 7.8 |
| COC(=O)CCNCCCCCCCCCCCCOCCCc1cccnc1 | µg/mL | 160 |
| CCCC[n+]1cccc(CCCOCCCCCCCCCCCCN=[N+]=[N-])c1.[I-] | µg/mL | 7.8 |

###

# TEST METHOD NOTES: Toxicity in po dosed mouse measured for 24 hrs
# Assay type: organism-based
# ASSAY CONDITIONS: in vivo

| STRUCTURE AS SMILES | LD50 at 24 h, mg/kg |
| --- | --- |
| COc1cc2c(cc1OC)[C@@H]1N(C)Cc3c(cc(OC)c4c3OCO4)[C@]1(C)[C@H](O)C2 | 800 |

###

# Test system: Candida albicans
# TEST METHOD NOTES: Fungicidal activity against Candida albicans isolate 7 assessed as fungal killing incubated for 48 hrs followed by plating on SD agar plate
# Type: functional
# ASSAY CONDITIONS: read-out: MFC99.9

| COMPOUND | MFC / µg/mL |
| --- | --- |
| COC(=O)CCNCCCCCCCCCCCCOCCCc1cccnc1 | 250 |
| CCCC[n+]1cccc(CCCOCCCCCCCCCCCCN=[N+]=[N-])c1.[I-] | 7.8 |
| CC(=O)N1CCN(c2ccc(OCC3COC(Cn4ccnc4)(c4ccc(Cl)cc4Cl)O3)cc2)CC1 (centres undefined) | 7.8 |
| [Cl-].[N-]=[N+]=NCCCCCCCCCCCCOCCCc1ccc[n+](Cc2ccccc2)c1 | 3.9 |

###

# Tested on: Candida albicans
# TEST METHOD NOTES: Antifungal activity against Candida albicans isolate 5 assessed as reduction in fungal growth incubated for 48 hrs by broth microdilution method
# Type: functional
Entries and their MIC

| MOLECULE | UNIT OF MEASUREMENT | CENSORING SIGN | MIC |
| --- | --- | --- | --- |
| [Cl-].[N-]=[N+]=NCCCCCCCCCCCCOCCCc1ccc[n+](Cc2ccccc2)c1 | µg/mL | = | 7.8 |
| CCCC[n+]1cccc(CCCOCCCCCCCCCCCCN=[N+]=[N-])c1.[I-] | µg/mL | = | 3.9 |
| C[C@@H]1[C@H](O)[C@@H](C)/C=C/C=C/C=C/C=C/C=C/C=C/C=C/[C@H](O[C@@H]2O[C@H](C)[C@@H](O)[C@H](N)[C@@H]2O)C[C@@H]2O[C@](O)(C[C@@H](O)C[C@@H](O)[C@H](O)CC[C@@H](O)C[C@@H](O)CC(=O)O[C@H]1C)C[C@H](O)[C@H]2C(=O)O [AMPHOTERICIN B] | µg/mL | = | 39 |
| CC(=O)N1CCN(c2ccc(OCC3COC(Cn4ccnc4)(c4ccc(Cl)cc4Cl)O3)cc2)CC1 (centres undefined) [KETOCONAZOLE] | µg/mL | > | 500 |
